Tested on: T. brucei bloodstream forms (strain 427, derivative 221)
Test: In vitro activity against T. brucei bloodstream forms (resazurin)
Assay type: cell-based, Trypanosoma brucei
Conditions: Trypanosoma brucei; bloodstream forms; hydrochloride salts except 6 (citrate); ± SE
Parameter: IC90 (nM)

1) C[n+]1c2ccccc2cc2[n-]c3ccc(Br)cc3c21 [Compound 3, 7-Bromocryptolepine] :: 256
2) C[n+]1c2ccccc2cc2[n-]c3ccc(I)cc3c21 [Compound 5, 7-iodocryptolepine] :: 113
3) C[n+]1c2ccccc2cc2[n-]c3c(Br)cc(Br)cc3c21 [Compound 4, 7,9-Dibromocryptolepine] :: 40.3
4) C[n+]1c2ccccc2cc2[n-]c3c(I)cc(I)cc3c21 [Compound 6, 7,9-diiodocryptolepine] :: 114

All values here come from paper PMC9119314.
